Molecular target: T1, HP1a-CSD (residues 131-206), wild type (D. melanogaster, UniProt P05205 131-206)
T1 sequence (looked up): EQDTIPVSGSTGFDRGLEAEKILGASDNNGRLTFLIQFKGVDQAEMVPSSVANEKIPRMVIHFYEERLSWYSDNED
Assay: fluorescence polarisation
Primed or numbered codes have the meaning given here. No end group written: not given here. fluorescein″ = fluorescein label at the N-terminus of the peptide; fluorescein = fluorescein group at the N-terminus

{"BINDER": "fluorescein-QNISPRKLSVKINRRPYNKWLR [HP2 peptide Cys to Ser mutant (LSVKI), N-terminal fluorescein]", "Kd, nM": 300}
{"BINDER": "{fluorescein″}-QNISPRKLCVKINRRPYNKWLR [HP2 peptide wild type (LCVKI), N-terminal fluorescein]", "Kd, nM": 140}
{"BINDER": "fluorescein-TSRGSGDPRVKVFRGSSSGDY [PIWI peptide, N-terminal fluorescein]", "Kd, nM": 20000}

The measured values listed here are drawn from paper PMC3154745.
